Target: CXCR4 receptor (human, UniProt P61073 1-352)
Sequence (P61073 whole entry): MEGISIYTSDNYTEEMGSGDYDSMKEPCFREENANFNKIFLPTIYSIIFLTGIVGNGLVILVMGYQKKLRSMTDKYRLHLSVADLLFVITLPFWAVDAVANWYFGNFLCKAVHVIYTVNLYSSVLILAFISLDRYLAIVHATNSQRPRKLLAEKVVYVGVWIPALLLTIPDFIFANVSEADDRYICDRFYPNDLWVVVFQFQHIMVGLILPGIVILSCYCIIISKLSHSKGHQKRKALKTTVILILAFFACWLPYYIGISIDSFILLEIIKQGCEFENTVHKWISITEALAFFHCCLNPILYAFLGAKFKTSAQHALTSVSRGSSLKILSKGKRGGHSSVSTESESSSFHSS
Test: cell-based or functional assay
* marks the point of attachment. Palmitoyl = CCCCCCCCCCCCCCCC(=O)*
experimental readout: Max (% of vehicle), chemotaxis, SUPB-15, 1.0 uM

Lookup: Requested read-out: Max (% of vehicle), chemotaxis, SUPB-15, 1.0 uM. Entry: Palmitoyl-HATNSQRPRKLLAE-NH2 (SMILES CCCCCCCCCCCCCCCC(=O)N[C@@H](Cc1c[nH]cn1)C(=O)N[C@@H](C)C(=O)N[C@H](C(=O)N[C@@H](CC(N)=O)C(=O)N[C@@H](CO)C(=O)N[C@@H](CCC(N)=O)C(=O)N[C@@H](CCCNC(=N)N)C(=O)N1CCC[C@H]1C(=O)N[C@@H](CCCNC(=N)N)C(=O)N[C@@H](CCCCN)C(=O)N[C@@H](CC(C)C)C(=O)N[C@@H](CC(C)C)C(=O)N[C@@H](C)C(=O)N[C@@H](CCC(=O)O)C(N)=O)[C@@H](C)O) [CXCR4 i2 loop compound 81]
Found: 76.5 % of vehicle
